test: Pharmacokinetics in P. falciparum-infected humanized mice; conditions: NOD-scid IL-2Rγ^null, mouse, whole blood, po, 50 mg/kg
OUTCOME MEASURE: Tmax (h)

QUERY SMILES	OUTCOME MEASURE	RESULT NUMBER
C/C=C/C[C@@H](C)C(=O)[C@H]1C(=O)N[C@@H](C(C)C)C(=O)N(C)CC(=O)N(C)[C@@H](CC(C)C)C(=O)N[C@@H](C(C)C)C(=O)N(C)[C@@H](CC(C)C)C(=O)N[C@@H](C)C(=O)N[C@H](C)C(=O)N(C)[C@@H](CC(C)C)C(=O)N(C)[C@@H](CC(C)C)C(=O)N(C)[C@@H](C(C)C)C(=O)N1C	Tmax	3.3

---

assay: Pharmacokinetics in P. falciparum-infected humanized mice; conditions: NOD-scid IL-2Rγ^null, mouse, whole blood, po, 50 mg/kg

QUERY SMILES	Cmax, ng/mL
C/C=C/C[C@@H](C)C(=O)[C@H]1C(=O)N[C@@H](C(C)C)C(=O)N(C)CC(=O)N(C)[C@@H](CC(C)C)C(=O)N[C@@H](C(C)C)C(=O)N(C)[C@@H](CC(C)C)C(=O)N[C@@H](C)C(=O)N[C@H](C)C(=O)N(C)[C@@H](CC(C)C)C(=O)N(C)[C@@H](CC(C)C)C(=O)N(C)[C@@H](C(C)C)C(=O)N1C	1390

---

Measured pEC50, listed per entry for reference.
test system: P. falciparum 3D7; test: SYBR I dye DNA staining assay (SJCRH), P. falciparum 3D7; details: read-out: EC50 3D7; mean (95% CI); SYBR I fluorescence assay; chloroquine-sensitive strain; 72 h
pEC50: −log10 of the molar value.
OUTCOME MEASURE: pEC50

COMPOUND	OUTCOME MEASURE	RESULT NUMBER
Cc1c(N(C)CS(=O)(=O)O)c(=O)n(-c2ccccc2)n1C [Dipyrone]	pEC50	6.08
CC(=O)[C@@]1(O)CC[C@H]2[C@@H]3C=C(Cl)C4=CC(=O)[C@@H]5C[C@@H]5[C@]4(C)[C@H]3CC[C@@]21C [Cyproterone]	pEC50	6.25

---

experiment: Pharmacokinetics in P. falciparum-infected humanized mice; conditions: NOD-scid IL-2Rγ^null, mouse, whole blood, po, 100 mg/kg
Measured Tmax, listed per entry for reference.

QUERY SMILES	VALUE UNIT	Tmax
C/C=C/C[C@@H](C)C(=O)[C@H]1C(=O)N[C@@H](C(C)C)C(=O)N(C)CC(=O)N(C)[C@@H](CC(C)C)C(=O)N[C@@H](C(C)C)C(=O)N(C)[C@@H](CC(C)C)C(=O)N[C@@H](C)C(=O)N[C@H](C)C(=O)N(C)[C@@H](CC(C)C)C(=O)N(C)[C@@H](CC(C)C)C(=O)N(C)[C@@H](C(C)C)C(=O)N1C	h	5.33
Cc1nc2cnccc2n1-c1ccc(C(=O)N2CCC(=C3c4ccc(Cl)cc4CCc4cccnc43)CC2)cc1	h	4

---

Measured Cmax, listed per entry for reference.
assay: Pharmacokinetics in P. falciparum-infected humanized mice; settings: NOD-scid IL-2Rγ^null, mouse, whole blood, sc, 10 mg/kg

QUERY SMILES	VALUE UNIT	Cmax
C[C@]12O[C@H](C[C@]1(O)CO)n1c3ccccc3c3c4c(c5c6ccccc6n2c5c31)CNC4=O	ng/mL	630
CCSCc1ccc2c(c1)c1c3c(c4c5cc(CSCC)ccc5n5c4c1n2[C@H]1C[C@](O)(C(=O)OC)[C@]5(C)O1)CNC3=O	ng/mL	830
